B1: library; a variant is named by its letters at N, in order (parent)
chain: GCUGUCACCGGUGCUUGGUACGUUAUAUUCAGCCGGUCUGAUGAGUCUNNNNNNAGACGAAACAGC

# Variants of: B1
# ASSAY INFO: normalized RNA/DNA level without ligand (relative to sTRSVctl = 100) (log10 (% of sTRSVctl)); HEK293T overexpressing SLC46A1; higher = less ribozyme self-cleavage, higher mRNA level
# CONDITION SET: without (6R,S)-folinic acid; ligand present: no
normalized RNA/DNA level without ligand (log10) values for the variants below.
EXPERIMENTAL READOUT: normalized RNA/DNA level without ligand (log10)

> print(dat)
   variant.key  measured.number
1       GUUCUA             2.03
2       AGGGUG             1.95
3       ACAAGU             2.02

Reference source: the supplement of paper PMC6757056
